Tested on: WM-266-4 cells
Experiment Notes: DDA-induced cytotoxicity
Assay type: cell-based
Setup Conditions: Homo sapiens; WM-266-4 (H), BRaf WT; 72 h; read-out: Cytotox EC50
Procedure: Melanoma cells were seeded into 6-well plates at 60,000 cells per well and AML cells at 250,000 cells/ml. The cells were then treated with control solvent vehicle (1/1000 ethanol in water) or DDA. Where indicated, treated cells were incubated in the presence or absence of each inhibitor for time shown. Cell death was determined by the trypan blue exclusion assay. Cells were scraped and resuspended in trypan blue solution (0.25% (w/v) in PBS) and counted in a Malassez cell under light microscopy. […]
Measure Name: EC50

>>> obs_value("CC(C)CCC[C@@H](C)[C@H]1CC[C@H]2[C@@H]3C[C@@H](NCCc4cnc[nH]4)[C@@]4(O)C[C@@H](O)CC[C@]4(C)[C@H]3CC[C@]12C")
"2700 nM"

---

Experiment Notes: in vivo
Parameters: species or system NSG mice
Setup Conditions: NSG, mouse, ip, 20 mg/kg
Measure Name: Tmax

>>> obs_value("CC(C)CCC[C@@H](C)[C@H]1CC[C@H]2[C@@H]3C[C@@H](NCCc4cnc[nH]4)[C@@]4(O)C[C@@H](O)CC[C@]4(C)[C@H]3CC[C@]12C")
"2 h"

---

Experiment Notes: in vivo
Parameters: species or system NSG mice
Setup Conditions: NSG, mouse, po, 20 mg/kg, T1/2 elimination
Measure Name: half-life

>>> obs_value("CC(C)CCC[C@@H](C)[C@H]1CC[C@H]2[C@@H]3C[C@@H](NCCc4cnc[nH]4)[C@@]4(O)C[C@@H](O)CC[C@]4(C)[C@H]3CC[C@]12C")
"1 h"

---

Test system: B16F10 cells
Experiment Notes: RT-qPCR of LXR-responsive genes
Type: cell-based, mouse
Setup Conditions: B16F10, siCT, 8 h; 2.5 µM DDA, 10 µM 22(R)HC, 1 µM GW, 100 nM TO; vs vehicle
Collected ABCG1 mRNA values appear next to each entry.
Measure Name: ABCG1 mRNA (fold)

>>> obs_value("O=C(O)Cc1cccc(OCCCN(Cc2cccc(C(F)(F)F)c2Cl)CC(c2ccccc2)c2ccccc2)c1")
2.1
>>> obs_value("O=S(=O)(c1ccccc1)N(CC(F)(F)F)c1ccc(C(O)(C(F)(F)F)C(F)(F)F)cc1")
1.1
>>> obs_value("CC(C)CC[C@@H](O)[C@@H](C)[C@H]1CC[C@H]2[C@@H]3CC=C4C[C@@H](O)CC[C@]4(C)[C@H]3CC[C@]12C [22(R)HC, 22(R)-hydroxycholesterol]")
0.7
>>> obs_value("CC(C)CCC[C@@H](C)[C@H]1CC[C@H]2[C@@H]3C[C@@H](NCCc4cnc[nH]4)[C@@]4(O)C[C@@H](O)CC[C@]4(C)[C@H]3CC[C@]12C")
1.4

---

Tested on: B16F10 cells
Experiment Notes: RT-qPCR of LXR-responsive genes
Format: cell-based, mouse
Setup Conditions: B16F10, siCT, 8 h; 2.5 µM DDA, 10 µM 22(R)HC, 1 µM GW, 100 nM TO; vs vehicle
The following molecules are listed with their measured LC3B mRNA values.
Measure Name: LC3B mRNA

>>> obs_value("O=C(O)Cc1cccc(OCCCN(Cc2cccc(C(F)(F)F)c2Cl)CC(c2ccccc2)c2ccccc2)c1 [GW, GW3965]")
"1.1±0.1 fold"
>>> obs_value("O=S(=O)(c1ccccc1)N(CC(F)(F)F)c1ccc(C(O)(C(F)(F)F)C(F)(F)F)cc1 [TO, TO901317]")
"1.3±0.1 fold"
>>> obs_value("CC(C)CC[C@@H](O)[C@@H](C)[C@H]1CC[C@H]2[C@@H]3CC=C4C[C@@H](O)CC[C@]4(C)[C@H]3CC[C@]12C [22(R)HC, 22(R)-hydroxycholesterol]")
"1.1±0.2 fold"
>>> obs_value("CC(C)CCC[C@@H](C)[C@H]1CC[C@H]2[C@@H]3C[C@@H](NCCc4cnc[nH]4)[C@@]4(O)C[C@@H](O)CC[C@]4(C)[C@H]3CC[C@]12C [DDA, Dendrogenin A]")
"1.7±0.1 fold"
